Tested on: M14 melanoma
Assay: NCI-60 one-dose screen, 48 h (100 = growth as untreated, 0 = no growth, -100 = all killed)
Settings: 10 µM unless noted
This is part of a sample that, as a whole, favours compounds with a hit. Of some 83,000 tested, about 20% had one in any assay.
Listing of recorded growth by entry.
MEASUREMENT_KIND: growth (%)

>  <MOLECULE>
Nc1nc(N)c2c(n1)NC(c1ccccc1)C1CCc3ccccc3C1=N2 (stereo not given)

>  <UOM>
%

>  <OBSERVED_VALUE>
53.2

$$$$
>  <MOLECULE>
CC(=O)O[C@]1(C(C)=O)CCC2C3C[C@H](C)C4=CC(=O)CC[C@]4(C)C3CC[C@@]21C (stereo not given in full)

>  <UOM>
%

>  <OBSERVED_VALUE>
89

$$$$
>  <MOLECULE>
Clc1cccc(Cl)c1/C=C/c1cc(/C=C/c2c(Cl)cccc2Cl)[nH]n1

>  <UOM>
%

>  <OBSERVED_VALUE>
5.51

$$$$
>  <MOLECULE>
COc1c(CCC[P+](c2ccccc2)(c2ccccc2)c2ccccc2)cc2c(c1OC)OCO2

>  <UOM>
%

>  <OBSERVED_VALUE>
12.2

$$$$
>  <MOLECULE>
O=C(N/N=C/C=C/c1ccc([N+](=O)[O-])o1)c1cc2ccccc2cc1O

>  <UOM>
%

>  <OBSERVED_VALUE>
-100

$$$$
>  <MOLECULE>
CC(=O)n1c(-c2ccc(Cl)cc2)nc2c(c1=O)C(c1ccc(Cl)cc1)c1sc3c(Cl)cccc3c1O2 (stereo not given)

>  <UOM>
%

>  <OBSERVED_VALUE>
-39.3

$$$$
>  <MOLECULE>
Cc1cc(=O)oc2c1ccc1oc(C#N)c(C)c12

>  <UOM>
%

>  <OBSERVED_VALUE>
100

$$$$
>  <MOLECULE>
COc1cc2nc(Cl)nc(Nc3ccc(S(=O)(=O)Nc4nccs4)cc3)c2cc1OC

>  <UOM>
%

>  <OBSERVED_VALUE>
100

$$$$
>  <MOLECULE>
O=[N+]([O-])c1ccc(C2CC(c3ccccc3)=Nc3ccccc3S2)cc1 (stereo not given)

>  <UOM>
%

>  <OBSERVED_VALUE>
104

$$$$
>  <MOLECULE>
Cc1cc(=O)[nH]c(N=Nc2c(O)[nH]c3ccccc23)n1

>  <UOM>
%

>  <OBSERVED_VALUE>
100

$$$$

---

Attribute: growth
Test system: SN12C renal
Test: NCI-60 one-dose screen, 48 h (100 = growth as untreated, 0 = no growth, -100 = all killed)
Settings: 10 µM unless noted
This is part of a sample that, as a whole, favours compounds with a hit. Of some 83,000 tested, about 20% had one in any assay.

>  <COMPOUND>
Cc1ccc(-n2nc3c(c(C#N)c2=O)CC(c2ccccc2Cl)C([N+](=O)[O-])=C3O)cc1 (centres undefined)

>  <growth [%]>
108

$$$$
>  <COMPOUND>
Cc1ccc(S(=O)(=O)Oc2cc(OS(=O)(=O)c3ccc(C)cc3)cc(OS(=O)(=O)c3ccc(C)cc3)c2)cc1

>  <growth [%]>
107

$$$$
>  <COMPOUND>
CCN1C(=O)N(CC)C2Nn3c(s/c(=C\c4cccc([N+](=O)[O-])c4)c3=O)=NC21 (centres undefined)

>  <growth [%]>
48.6

$$$$
>  <COMPOUND>
O=C(COc1ccc(/C=C2\Oc3ccccc3C2=O)cc1)Nc1nc2c(s1)CCCC2

>  <growth [%]>
46

$$$$
>  <COMPOUND>
NC(=O)c1ccc[n+]([C@@H]2O[C@H](COP(=O)([O-])OP(=O)(O)OC[C@H]3O[C@@H](n4cnc5c(N)ncnc54)[C@H](O)[C@@H]3O)[C@@H](O)[C@H]2O)c1

>  <growth [%]>
107

$$$$
>  <COMPOUND>
COc1ccc(C(=O)/C=C/c2c(C(F)(F)F)nc3sccn23)cc1OC

>  <growth [%]>
29

$$$$
>  <COMPOUND>
c1c[nH]c(CNC2CCCCC2)c1

>  <growth [%]>
107

$$$$
>  <COMPOUND>
CC(=O)n1c(-c2ccc(Cl)cc2)nc2c(c1=O)C(c1ccc(Cl)cc1)c1sc3c(Cl)cccc3c1O2 (centres undefined)

>  <growth [%]>
-0.0627

$$$$
>  <COMPOUND>
CN(C)CCCn1c(=O)c2ccccc2c2ccccc21

>  <growth [%]>
50.6

$$$$

---

Test system: HCC-2998 colon
Assay: NCI-60 one-dose screen, 48 h (100 = growth as untreated, 0 = no growth, -100 = all killed)
Settings: 10 µM unless noted
The panel holds about 83,000 compounds, 20% with a hit somewhere; the sample as a whole holds those more often.
MEASUREMENT_KIND: growth (%)

>  <COMPOUND>
O=c1ssc(Cl)c1-c1ccccc1

>  <TESTED_TARGET>
HCC-2998 colon

>  <UOM>
%

>  <OBSERVED_VALUE>
104

$$$$
>  <COMPOUND>
O=C(O)C1CCC(=O)N1C(=O)OCc1ccccc1 (stereo unspecified)

>  <TESTED_TARGET>
HCC-2998 colon

>  <UOM>
%

>  <OBSERVED_VALUE>
104

$$$$
>  <COMPOUND>
Cc1cc(NCc2cc(Nc3ccnc4cc(Cl)ccc34)ccc2F)nc(N2CCN(c3ccccc3)CC2)n1

>  <TESTED_TARGET>
HCC-2998 colon

>  <UOM>
%

>  <OBSERVED_VALUE>
28.2

$$$$
>  <COMPOUND>
N#C/C(=C\c1ccc(Br)cc1)n1nnc2cc(F)c(F)cc21

>  <TESTED_TARGET>
HCC-2998 colon

>  <UOM>
%

>  <OBSERVED_VALUE>
40

$$$$
>  <COMPOUND>
Nc1n[nH]c2cc(F)c([C@@H]3Nc4c(F)cc5[nH]ncc5c4[C@H]4C5CCC(C5)[C@@H]34)cc12 (stereo partly specified)

>  <TESTED_TARGET>
HCC-2998 colon

>  <UOM>
%

>  <OBSERVED_VALUE>
7.27

$$$$
>  <COMPOUND>
N#Cc1c(N)nc2c(C#N)c(NC(=O)c3ccccc3)nn2c1-c1ccccc1

>  <TESTED_TARGET>
HCC-2998 colon

>  <UOM>
%

>  <OBSERVED_VALUE>
103

$$$$
>  <COMPOUND>
C[C@@H]1N=C(c2ccc3ccccc3n2)Nc2nc3ccccn3c2C1=O

>  <TESTED_TARGET>
HCC-2998 colon

>  <UOM>
%

>  <OBSERVED_VALUE>
101

$$$$
>  <COMPOUND>
CN(c1ccccc1)c1ccc2c(c1)OCCC21CC1Nc1cnccc1C(=O)O (stereo unspecified)

>  <TESTED_TARGET>
HCC-2998 colon

>  <UOM>
%

>  <OBSERVED_VALUE>
68.2

$$$$
>  <COMPOUND>
COc1cccc(-c2nc3sccn3c2/C=C/C(=O)c2ccc(C(F)(F)F)cc2)c1

>  <TESTED_TARGET>
HCC-2998 colon

>  <UOM>
%

>  <OBSERVED_VALUE>
102

$$$$
>  <COMPOUND>
CCC(CO)Nc1nc2ccc(Cl)cc2c2ccccc12 (stereo unspecified)

>  <TESTED_TARGET>
HCC-2998 colon

>  <UOM>
%

>  <OBSERVED_VALUE>
54.9

$$$$
>  <COMPOUND>
O=Cc1ccc(O)c2ncccc12

>  <TESTED_TARGET>
HCC-2998 colon

>  <UOM>
%

>  <OBSERVED_VALUE>
86.6

$$$$

---

Tested on: OVCAR-4 ovarian
Test: NCI-60 one-dose screen, 48 h (100 = growth as untreated, 0 = no growth, -100 = all killed)
Settings: 10 µM unless noted
Experimental: Growth inhibition of the OVCAR-4 human tumor cell line is measured as a screen for anti-cancer activity. Cells are grown in 96 well plates and exposed to the test compound for 48 hours. Compounds are tested at a single concentration, which is 10^-5 M for most compounds. The reported endpoint is percent growth (GI% or GIPRCNT), where numbers from 0 - 100% represent growth inhibition, and numbers from -100% - 0 represent cell death. For example, a value of 40 represents 60% growth inhibition. […]
About 83,000 compounds went through this panel and 20% of them were active in at least one assay; those are over-represented in the sample as a whole. Active and inactive are the calls of the source. How the source made its calls: active means growth percent below 10; inactive means the rest.

>  <COMPOUND>
COc1cc(CCC[P+](c2ccccc2)(c2ccccc2)c2ccccc2)cc2c1OCO2

>  <growth>
12.4% (inactive)

$$$$
>  <COMPOUND>
N#Cc1c2c(nn(-c3ccccc3)c1=O)C(O)=C([N+](=O)[O-])C(c1ccccc1)C2 (centres undefined)

>  <growth>
73.8% (inactive)

$$$$
>  <COMPOUND>
COC(=O)[C@]12CC[C@@H](C)[C@H](C)[C@@H]1C1=CC[C@@H]3[C@@]4(C)C(C=O)=C[C@@](C)(COC(=O)c5ccco5)[C@@H]4C(=O)C[C@@]3(C)[C@]1(C)CC2

>  <growth>
29.8% (inactive)

$$$$
>  <COMPOUND>
COc1nc2c(c(=O)n1C)CN(c1ccccc1)C(=O)CN2C

>  <growth>
53.4% [100 µM] (inactive)

$$$$
